tested on: MDA-N; assay: NCI tumour cell line growth inhibition, 48 h
measured_quantity: TGI

Here's what some known entries look like.
compound | TGI
CSC1(C)C(=O)Nc2c(OCc3ccccc3)cc([N+](=O)[O-])cc21 (centres undefined) | > 100 µM
CCc1c2c(cc3c1CC1(C3)Cc3cc4c(c(C(=O)OC)c3C1)CCCC4)CCCC2 (centres undefined) | > 100 µM
CN(CC(=O)O)c1ncc2c(n1)C=CCC2 | > 100 µM

So what does the record say about TGI for CN(C)c1ccc(/C=C/c2ccc(S(N)(=O)=O)cc2)cc1 ?
> 100 µM

So what does the record say about TGI for NNC(=O)CC(=O)Nc1cccc(Cl)c1 ?
> 100 µM

###

system: SK-MEL-2 melanoma; experiment: NCI tumour cell line growth inhibition, 48 h
List of TGI values.

Here's what some known entries look like.
compound | observed_measurement
NCCSc1cc(O)c2c(c1N)C(=O)c1ccccc1C2=O | > 100 µM
Cc1c(-c2ccc(C3CCCCC3)cc2)nc2ccc(F)cc2c1C(=O)O | > 100 µM
CN(C)c1ccc(/C=C/c2ccc(S(N)(=O)=O)cc2)cc1 | > 100 µM
CC(=O)O[C@H]([C@H](OC(C)=O)[C@H](C)OC(C)=O)[C@@H](/C=C/[C@@H]1CC=CC(=O)O1)OC(C)=O | 74.4 µM
CSCC[C@@H]1C(=O)N(C)[C@H](C(C)(C)C)N1C(=O)c1ccccc1 | > 100 µM

So what does the record say about TGI for COc1cccc(/C=N/NC(=O)CSCC(=O)N/N=C/c2cccc(OC)c2OC)c1OC ?
> 100 µM

So what does the record say about TGI for COc1cc2c(cc1OC)C1C(=O)c3c(O)cc4c(c3OC1CO2)C=CC(C)(C)O4 (configuration not stated) ?
50.7 µM

###

system: EKVX NSCLC; assay: NCI tumour cell line growth inhibition, 48 h
measured_quantity: TGI

molecule | observed_measurement
CC(O)C1(CNc2cc(Cl)nc(N)n2)CCCCC1 (configuration not stated) | > 100 µM

Now for another entry.
So what does the record say about TGI for OCC1COc2cc(Cl)c(Cl)cc2O1 (configuration not stated) ?
> 10 µM

###

List of TGI values.
tested on: A498 renal; experiment: NCI tumour cell line growth inhibition, 48 h
Answer in µM, number only, no unit symbol.

Here's what some known entries look like.
molecule | measured_target | TGI, µM
O=C1C(Cl)=C(Nc2ccc(Nc3ccccc3)c(NC3=C(Cl)C(=O)c4ccccc4C3=O)c2)C(=O)c2ccccc21 | A498 renal | 14.4
BrC(Br)=C1C(=C(Br)Br)C(Br)C1Br (stereo unspecified) | A498 renal | 3.38

Now for another entry.
So what does the record say about TGI for C=C1CC2(CC(c3ccccc3Cl)OC(c3ccccc3Cl)C2)OC1=O (stereo unspecified) ?
21.3

###

system: DMS 114 small cell lung; assay: NCI tumour cell line growth inhibition, 48 h
List of TGI values.

Here's what some known entries look like.
compound | measured_quantity | observed_measurement
CN1CN(C2OC(CO)C(O)C2O)c2nc(N)[nH]c(=O)c21 (centres undefined) | TGI | > 100 µM
CCOC(=O)C1SC(=Nc2ccc(OC)c(OC)c2)N=C1C (centres undefined) | TGI | 80.5 µM
Cc1n[nH]c(=S)n(C)c1=S | TGI | > 100 µM
O=C(Cc1ccccc1F)NC1=C(Cl)C(=O)c2ccccc2C1=O | TGI | 0.543 µM
COC(=O)c1ccccc1N(C(=O)c1ccccc1)c1ccccc1C | TGI | > 100 µM
O=C(O)/C(Cl)=C(\Cl)C(=O)c1ccccc1 | TGI | > 100 µM

So what does the record say about TGI for C[C@]12CCC(=O)C(OC(=O)c3ccc([N+](=O)[O-])cc3)=C1CCC2=O ?
> 100 µM

So what does the record say about TGI for CCOC(=O)CC1COc2ccc3c(c21)OCO3 (centres undefined) ?
> 100 µM

So what does the record say about TGI for CC(=O)OCC1OC(n2ccc(=O)[nH]c2=O)C(OC(C)=O)C(OC(C)=O)C1OC(C)=O (centres undefined) ?
> 100 µM

###

test system: NCI-H522 lung; test: NCI tumour cell line growth inhibition, 48 h
List of TGI values.

Here's what some known entries look like.
compound | measured_target | TGI
CCCCC(CCCCCC(CCCC)NCc1ccc2c(c1)OCO2)NCc1ccc2c(c1)OCO2 (stereo not given) | NCI-H522 lung | 1.27 µM
CC(CC(N)C(=O)O)C(=O)O (stereo not given) | NCI-H522 lung | > 100 µM
CC(=O)Oc1cc(S(=O)(=O)Nc2n[nH]c(Nc3ccc(C)cc3)n2)c(S)cc1Cl | NCI-H522 lung | > 100 µM
O=P1(c2ccccc2)c2ccccc2-c2ccccc21 | NCI-H522 lung | > 100 µM
CC1CN=C(NS(=O)(=O)c2cc(C(=O)Nc3ccc(Cl)cc3)c(Cl)cc2S)NN1 (stereo not given) | NCI-H522 lung | 64.1 µM

So what does the record say about TGI for S=C(N/N=C(\c1ccccc1)c1ccccn1)NC1CCCCC1 ?
> 100 µM

So what does the record say about TGI for C[C@H]1/C(=C/C(=O)OCCN(C)C)CC[C@H]2[C@H]1C(=O)C[C@H]1C(C)(C)[C@@H](O)CC[C@]21C ?
> 100 µM

So what does the record say about TGI for NS(=O)(=O)c1nnc(NC(=O)C23CC4CC(CC(C4)C2)C3)s1 ?
> 100 µM

So what does the record say about TGI for CCOC(=O)CC(c1ccccc1)C(C)(C(=O)OCC)C(=O)OCC (stereo not given) ?
> 100 µM

So what does the record say about TGI for Cc1c2ccn(O)cc2c(C)c2c1nc1ccccc12 ?
22.3 µM

###

List of GI50 values.
tested on: MDA-MB-231 breast; assay: NCI tumour cell line growth inhibition, 48 h

Here's what some known entries look like.
compound | GI50
COc1cccc(/C=C/C(=O)c2ccc(SC)cc2)c1OC | 17.3 µM
CCCCN1CCCC[C@@H]1C(=O)N[C@H](C(=O)N(C)[C@H](C[C@@H](OC(C)=O)c1nc(C(=O)NC2CCC(C(=O)OC)CC2)cs1)C(C)C)C(C)C (stereo partly drawn) | 1.89 µM

Now for another entry.
So what does the record say about GI50 for Oc1ccc(O)c(-c2cn3c(n2)SCC3)c1 ?
11.7 µM

###

tested on: LOX IMVI melanoma; assay: NCI tumour cell line growth inhibition, 48 h
measured_quantity: TGI (µM)
Answer in µM, number only, no unit symbol.

Param readout = TGI; param system = LOX IMVI melanoma; param query = CC/C=C\C[C@H](F)C/C=C1/C(=O)C=C[C@@H]1C/C=C\CCCC(=O)OC ; response: value
1.75

Param readout = TGI; param system = LOX IMVI melanoma; param query = O=C(/C=C/c1ccc(Cl)cc1)c1ccccc(=O)c1O ; response: value
13

Param readout = TGI; param system = LOX IMVI melanoma; param query = Cc1cc(Cl)nc2nc(Cl)c(N)cc12 ; response: value
3.63

Param readout = TGI; param system = LOX IMVI melanoma; param query = CCC(C)C(N)C(=O)NC(CC(N)=O)C(=O)NC(CC(C)C)C(=O)NC(CCCCN)C(=O)NC(C)C(=O)NC(CC(C)C)C(=O)NC(C)C(=O)NC(C)C(=O)NC(CC(C)C)C(=O)NC(C)C(=O)NC(CCCCN)C(=O)NC(CCCCN)C(=O)NC(C(=O)NC(CC(C)C)C(N)=O)C(C)CC (stereo not drawn) ; response: value
35.3

Param readout = TGI; param system = LOX IMVI melanoma; param query = COc1ccc2c3c(Nc4cccc(/C(C)=N\O)c4)[nH]c4ccccc4c-3c(N=O)c2c1 ; response: value
67.7

Param readout = TGI; param system = LOX IMVI melanoma; param query = CN(C)CCN1C(=O)c2cccc3cc([N+](=O)[O-])cc(c23)C1=O ; response: value
0.806

Param readout = TGI; param system = LOX IMVI melanoma; param query = O=C1/C(=C/c2ccccc2)CN(C(=O)C(Cl)Cl)C/C1=C\c1ccccc1 ; response: value
0.353

Param readout = TGI; param system = LOX IMVI melanoma; param query = COC1C(O)CC(OC2CC(OC3CC(O[C@@H]4C(=O)c5c(cc6cc(OC7CC(OC8CC(O)C(O)C(C)O8)C(O)C(C)O7)c(C)c(O)c6c5O)CC4[C@H](OC)C(=O)O)OC(C)C3O)OC(C)C2O)OC1C (stereo partly drawn) ; response: value
5.07

###

tested on: IGROV1 ovarian; assay: NCI tumour cell line growth inhibition, 48 h
measured_quantity: TGI

Here's what some known entries look like.
compound | measured_target | measured_quantity | observed_measurement
c1cc(-c2ccc(-c3ccc(-c4ccc(-c5ccncc5)o4)cc3)o2)ccn1 | IGROV1 ovarian | TGI | 35.8 µM
N#CC(/C(CCC(=O)Nc1ccc(Cl)cc1)=N/NC(=O)c1cc2ccccc2cc1O)c1ccccc1 (centres undefined) | IGROV1 ovarian | TGI | > 100 µM

So what does the record say about TGI for CNC(=O)NCNC(=O)NC ?
> 100 µM

So what does the record say about TGI for CCCNC(=S)N/N=C(\C)c1ccc(S(=O)(=O)N(C)c2ccccc2)cc1 ?
> 66.1 µM
